Tested on: 843126-344-R-J1-PDC complex spheroid viability;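 also: spheroids exposed to drugs for seven days before readout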
experiment description: Anticancer human tumor 843126-344-R-J1-PDC patient-derived melanoma cell line growth inhibition [POLQ]
test settings: second compound 0.316 µM; first compound 0.00316 µM; stronger effect = lower value
property measured: viability, T/C (%)
// units = %; emit number, no label

[
  {
    "compound": "C=CCn1c(=O)c2cnc(Nc3ccc(N4CCN(C)CC4)cc3)nc2n1-c1cccc(C(C)(C)O)n1 + Cc1cccc(N(C)C(=O)C2C(O)CCN2c2nc(C)cc(C(F)(F)F)c2C#N)c1",
    "test system": "843126-344-R-J1-PDC complex spheroid viability",
    "viability, T/C, %": 101
  },
  {
    "compound": "COc1cccc(OCCCN)c1-c1cc(Nc2cnc(C#N)cn2)n[nH]1 + Cc1cccc(N(C)C(=O)C2C(O)CCN2c2nc(C)cc(C(F)(F)F)c2C#N)c1",
    "test system": "843126-344-R-J1-PDC complex spheroid viability",
    "viability, T/C, %": 90
  },
  {
    "compound": "CCc1c2c(nc3ccc(O)cc13)-c1cc3c(c(=O)n1C2)COC(=O)[C@]3(O)CC + Cc1cccc(N(C)C(=O)C2C(O)CCN2c2nc(C)cc(C(F)(F)F)c2C#N)c1",
    "test system": "843126-344-R-J1-PDC complex spheroid viability",
    "viability, T/C, %": 70.5
  },
  {
    "compound": "CCc1c2c(nc3ccc(O)cc13)-c1cc3c(c(=O)n1C2)COC(=O)[C@]3(O)CC + Nc1ccc(C#CCN(C(=O)Cc2ncc(C(F)(F)F)cc2C(F)(F)F)c2ccc(F)cc2)nn1",
    "test system": "843126-344-R-J1-PDC complex spheroid viability",
    "viability, T/C, %": 69.5
  }
]

For the next question, use this compound.
Query: Under 843126-344-R-J1-PDC complex spheroid viability, report viability, T/C for COc1cccc(OCCCN)c1-c1cc(Nc2cnc(C#N)cn2)n[nH]1 + COC1C(OC(N)=O)C(O)C(Oc2ccc3c(O)c(NC(=O)c4ccc(O)c(CC=C(C)C)c4)c(=O)oc3c2C)OC1(C)C
Result: 79.9

The reported numbers originate from PubChem BioAssay AID1963837.
